Source of measurements: patent US20160376333A1

What Log2 enrichment ratio was measured for each of the following?
Biological target: T1, Epstein-Barr virus BHRF1 a.a. 1-161 with C-terminal avi-6his tag (Epstein-Barr virus)
T1 construct: also called EBV BHRF1; BHRF1-biotin
T1 chain: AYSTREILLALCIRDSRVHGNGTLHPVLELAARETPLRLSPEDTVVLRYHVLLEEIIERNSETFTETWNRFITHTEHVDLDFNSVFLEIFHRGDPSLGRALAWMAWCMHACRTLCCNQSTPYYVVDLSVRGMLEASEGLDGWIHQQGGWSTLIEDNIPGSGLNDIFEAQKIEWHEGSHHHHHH
Assay: yeast display library, FACS sort at 100 nM BHRF1, deep sequencing
Give bare numbers, in log2.

Some solved cases for reference:
| BINDER | RECORDED RESULT |
| --- | --- |
| Index 13 (designed binder) GSKWEEDREKAKREAEKKLDEAKDKLDLYKDFALRFDASDELKTKWTLEWIALALEMIGDVFNYALEAKEFAEKKARNNLLLDDLKDLYKLYLALLAKEESKKAIEEGDKLREAIEKG | -3.07 |
| Index 53 (designed binder) GHVAEEEIRRFLRKAEKVLQEARRKMEKRRREAEEHDTTTWLLARGTIEWIADALMLIGDAFNFRREAYIRGELYKKFGLIREDDLKDRLKEADQRLDEFAKKMALFGLELHLRLREG | -0.29 |

Give one value of Log2 enrichment ratio per listed binder.
1. Index 27 (designed binder) GLDGDYLMDEAFKFIERERERAEEEAKKMYELAEKGKYYEERKTKATKFWIALALEMIGDFFNFEMWFRKYAEKNRENNQRREDLLRRWELLLRFQAWDAAERARELGKRLELWFKKG
2. Index 35 (designed binder) GGDGVKELEELEKRKDEKKNKAEDRIKKFKDEAKYADDRTEDKEKLAHRWIALALDIIGDAFNLKEEARRRFLRHKFRGELDDSKKEYAEKEMKRFEDDVEKDAEELAQKAKEAFKEG
3. Index 03 (designed binder) GLDHDKIVDEARKKMEKKIREAKDKAKEFVLKALDNNHDLKQFRELAHKWIALMLMAIGDAFNIMMEAKRKAEWLREQGQQDEDKAEEAKEKLDKAFKEAAERFEEIAKIYGKQAKNG
4. Index 08 (designed binder) GWDARRALKYVYERMREDLEYARNQIDNMEDRADQYDARTEERKEFTKRWIALALMLIGDGFNAFERAKEWIDDGKNNNQRSSDEADYAKDEALKFIFYAAFEARRKGDELDKKAEGG
5. Index 00 (Design BbpD04) (designed binder) GADWKKVLDKAKDIAENRVREIKQKLEEFYKKAMKLDLTQEMRRKLMLEWIAAMLMAIGDIFNAIEQAKQEADKLKKAGQVNSQLLDELKRRLEELKEEASRKCHDYGREFQLKLEYG
6. Index 18 (designed binder) GGTEDDIKDLAEKWRDDMKKEFLREFLRIKEWTKYWGWREEGRKLATLRWIALSLMHIGDLFNLKELAKKLVDDIKKKGLEHEERAERAREEAEKIMEKAAKLDSILSKLAAKLIEEG
7. Index 24 (designed binder) GELAREAAEEAHRRVEEDARDAKNRLDEFKKRYKITQLSKSDISRATALWIAAALDAIGDIFNAKQKAEKILGLWYKLGLVQLQEFLEKEDKARYHWQAALERAFEAGRDMLEVAAYG
8. Index 70 (designed binder) GLLWLAIILKAEELARKKDDEAEERIRRLEDEKRKGDPGTLGEAERTDRWIAIMLMAIGDAFNVMLEAKEEAEKLEKLGLVHKELLEKVKEEAERLFERSSDNFEEAAKRADDMEKEG

[-0.72, -3.51, 2.52, -3.06, 3.92, -1.36, -3.02, -3.02]
